The measurements presented in this section are drawn from PubChem BioAssay (NCI).

Tested on: NCI-H522 lung
ASSAY PROTOCOL: NCI tumour cell line growth inhibition, 48 h
Label fulfilled when TGI >= 7 µM; otherwise not fulfilled.

As a guide, the following entries are already answered.
COMPOUND: COC(=O)[C@]12CCC(=O)N1[C@H](C(=O)O)Cc1c2[nH]c2ccccc12
MEASURED ON: NCI-H522 lung
GROUP: fulfilled
--
COMPOUND: CC(=O)OCC1OC(O[C@@H]2C[C@H]3C(C)(C)[C@H](OC(C)=O)CC[C@]3(C)[C@H]3CC[C@@H]4[C@]5(CC[C@@]4(C)[C@@]32C)O[C@@H]([C@H](O)C(C)(C)O)C[C@@H]5C)C(O)C(O)C1O (stereo partly drawn)
MEASURED ON: NCI-H522 lung
GROUP: fulfilled
--
COMPOUND: Cc1ccc(NC(=O)CCC(=O)C(C#N)c2ccc(Cl)cc2)cc1C (stereo not drawn)
MEASURED ON: NCI-H522 lung
GROUP: fulfilled
--
COMPOUND: CC1=C(C(=O)OC(C)C)C(c2cccc([N+](=O)[O-])c2)C(C(=O)OC(CO[N+](=O)[O-])CO[N+](=O)[O-])=C(C)N1 (stereo not drawn)
MEASURED ON: NCI-H522 lung
GROUP: not fulfilled
--
COMPOUND: COc1cc(SC)ccc1C(=O)N1CCCC(C)C1 (stereo not drawn)
MEASURED ON: NCI-H522 lung
GROUP: fulfilled
--
COMPOUND: CC(=O)Oc1ccc(-c2c(OC(C)=O)c(OC(C)=O)c(-c3ccc(OC(C)=O)c(OC(C)=O)c3)c(OC(C)=O)c2OC(C)=O)cc1
MEASURED ON: NCI-H522 lung
GROUP: fulfilled
--
COMPOUND: C=CC(=O)N1C/C(=C\c2ccc(F)cc2)C(=O)/C(=C/c2ccc(F)cc2)C1
MEASURED ON: NCI-H522 lung
GROUP: not fulfilled

Now take the following compound into account.
Prompt line: Assess whether reported TGI for Clc1cccc(C2SCc3nc4ccccc4n32)c1Cl (stereo not drawn) sits at 7 µM or higher.
Response line: fulfilled

---

For each record, write down the corresponding TGI.
Test system: ACHN renal
ASSAY PROTOCOL: NCI tumour cell line growth inhibition, 48 h

Recorded TGI, per entry:
MOLECULE: CN1C=CN(Cc2ccc(-c3ccccn3)nc2)[CH-]1.CN1C=CN(Cc2ccc(-c3ccccn3)nc2)[CH-]1.[Au+3]
TGI: > 100 µM
--
MOLECULE: COc1cccc(C2c3cc4c(cc3OC(N3CCOCC3)C2C)OCO4)c1 (stereo not given)
TGI: > 100 µM
--
MOLECULE: COC(=O)[C@]12CCC(=O)N1[C@H](C(=O)O)Cc1c2[nH]c2ccccc12
TGI: > 100 µM
--
MOLECULE: O=C1C(=O)C(CCCO)(CCCO)CCCCCCCCC1(CCCO)CCCO
TGI: > 100 µM

Prompt line: Entry "O=C1C=Cc2noc3cccc1c23" has what TGI?
Response line: 7.85 µM

---

Test system: 786-0 renal
ASSAY PROTOCOL: NCI tumour cell line growth inhibition, 48 h
PARAMETER MEASURED: TGI

Recorded TGI, per entry:
COMPOUND: CCSc1nn(-c2c3ccccc3nc3ccccc23)c(=S)s1
TGI: > 100 µM
//
COMPOUND: CCCCCCCCCCCOCCC1C(C(C)OCCN2CCCC2)OC2OC(C)(C)OC21 (stereo unspecified)
TGI: 5.88 µM
//
COMPOUND: CCN(CC)c1ccc(/C=N\NC(=O)c2cccc(Nc3ccnc(C(F)(F)F)c3)c2)c(O)c1
TGI: 0.885 µM
//
COMPOUND: COc1ccc2c(c1)[n+]([O-])c(-c1ccc(Cl)c(Cl)c1)c(N)[n+]2[O-]
TGI: > 100 µM
//
COMPOUND: O/N=C1/CCCCC1NO (stereo unspecified)
TGI: > 100 µM
//
COMPOUND: COc1cc(Nc2ncc(-c3ccccc3)o2)cc(OC)c1OC
TGI: > 25 µM
//
COMPOUND: N#Cc1nc(Cc2cccs2)oc1N
TGI: > 100 µM
//
COMPOUND: NC(Cc1ccccc1)C(=O)O (stereo unspecified)
TGI: > 100 µM

Quick batch: TGI for everything below.
1. Cc1cc(C#Cc2ccccc2)ccc1-n1c(/C=C/c2ccc(O)cc2)nc2ccccc2c1=O
2. COc1cc(/C=C2\N=C(c3ccccc3)N(c3ccc(C(=O)c4ccccc4)cc3N3C(=O)/C(=C/c4cc(OC)c(OC)c(OC)c4)N=C3c3ccccc3)C2=O)cc(OC)c1OC
3. OCC(O)C(OC1OC(CO)C(O)C(O)C1O)c1nn(-c2ccc(F)cc2)c2nc3cc(Cl)c(Cl)cc3cc12 (stereo unspecified)
4. c1csc(-c2csc(-c3cccs3)c2)c1
5. S=C1OC2C3C4CC5C3C(O1)C1C5C4C21 (stereo unspecified)
6. NC(=S)NS(=O)(=O)c1ccc(Cl)cc1Cl
7. Cc1cccc(-c2cc(=O)c3c(C)ccnc3[nH]2)c1

Response line:
1: 28.7 µM; 2: > 100 µM; 3: > 100 µM; 4: > 100 µM; 5: > 100 µM; 6: > 100 µM; 7: > 100 µM

Quick batch: TGI for everything below.
1. CC1=C[C@H]2C[C@@]3(C)O[C@@H]([C@]4(C)CC[C@H]([C@@H](C)C(=O)O)OO4)CC3C(C)(C)[C@H]2CC1 (stereo partly specified)
2. C=C1C(=O)O[C@H]2[C@@H](O)[C@H](C)CCC/C(C)=C/CC[C@@]3(C)O[C@@H]3C[C@@H]12
3. CC(C)(CN1CCCCC1)C(=O)CC(SCCS(=O)(=O)O)c1ccc(Cl)c(Cl)c1 (stereo unspecified)
4. O=C(O)CNS(=O)(=O)c1ccc(NC(=O)c2cccc([N+](=O)[O-])c2)cc1
5. O=C(O)C1C2CC3CC2CC31 (stereo unspecified)
6. O=C(O)c1c(Cl)c(Cl)c(Cl)c(Cl)c1-c1c2cc(I)c(=O)c(I)c-2oc2c(I)c(O)c(I)cc12

Response line:
1. 4.99 µM
2. 14.9 µM
3. 3.4 µM
4. > 100 µM
5. > 100 µM
6. 123 µM

---

Tested on: OVCAR-4 ovarian
ASSAY PROTOCOL: NCI tumour cell line growth inhibition, 48 h
For each record, write down the corresponding TGI.

Recorded TGI, per entry:
MOLECULE: CCSc1nn(-c2c3ccccc3nc3ccccc23)c(=S)s1
RESULT: > 100 µM

MOLECULE: C/C(=N\NC(=S)Nc1ccc([N+](=O)[O-])cc1S(=O)(=O)O)c1ccccn1
RESULT: 95.3 µM

MOLECULE: Cc1ccc(Nc2ccnc(Nc3cccc(C(N)=O)c3)n2)cc1O
RESULT: > 25 µM

MOLECULE: CC(C)(C)OC(=O)N[C@@H](Cc1ccccc1)C(=O)N1CC[C@@H](C(=O)N2[C@H]3CC4CC[C@@]3(CS2(=O)=O)C4(C)C)N1
RESULT: > 100 µM

MOLECULE: O=C(Nc1ccc(-c2nc3ccc(NC(=O)c4ccc(Cl)cc4)cc3[nH]2)cc1)c1ccc(Cl)cc1
RESULT: 3.47 µM

Consider the additional molecule presented here.
Prompt line: Entry Cc1cn(C2CC(O)C(Cn3cc(Cn4nc(Br)c(=O)[nH]c4=O)nn3)O2)c(=O)[nH]c1=O (stereo unspecified) has what TGI?
Response line: > 100 µM

---

Test system: NCI/ADR-RES ovarian
ASSAY PROTOCOL: NCI tumour cell line growth inhibition, 48 h
PARAMETER MEASURED: GI50

SMILES RECORD: O=C(O)CCN1C(=O)/C(=C/C(Cl)=C/c2ccccc2)SC1=S
GI50: 2.6 µM

Quick batch: GI50 for everything below.
1. COc1cc(Nc2ncc(-c3ccccc3)o2)cc(OC)c1OC
2. CCc1ccc(/C=C2/SC(=S)NC2=O)cc1
3. C[C@@H]1CC[C@H]2C(CN3CCN(CC4=C(C(F)(F)F)O[C@@H]5O[C@@]6(C)CC[C@H]7[C@H](C)CC[C@@H]4[C@@]57OO6)CC3)=C(C(F)(F)F)O[C@@H]3O[C@@]4(C)CC[C@@H]1[C@]32OO4
4. O=C(Nc1ccc(-c2nc3ccc(NC(=O)c4ccc(Cl)cc4)cc3[nH]2)cc1)c1ccc(Cl)cc1

Response line:
1. 1.38 µM
2. 25.3 µM
3. > 100 µM
4. 17 µM

---

System: U251 CNS
ASSAY PROTOCOL: NCI tumour cell line growth inhibition, 48 h
For each record, write down the corresponding TGI.

Recorded TGI, per entry:
COMPOUND: COC(=O)C1CC(C=O)=C(SC)N1 (stereo not given)
TGI: > 50 µM
//
COMPOUND: CCn1c2ccccc2c2cc(NC(=O)c3c(C)[nH]c(=O)[nH]c3=S)ccc21
TGI: > 100 µM
//
COMPOUND: Cc1ccc(C)c2sc3cc(=O)ccc-3nc12
TGI: > 100 µM
//
COMPOUND: COCCOCCOCCOCCOc1ccc2c(c1)C(=O)c1nc3ncccc3c(=O)n1-2
TGI: 2.56 µM
//
COMPOUND: CC(=O)N/N=C1\NN(C(C)=O)C2(S1)C(=O)Nc1ccccc12 (stereo not given)
TGI: > 100 µM

Quick batch: TGI for everything below.
1. O=C(c1ccccc1)c1ccc2c(c1)N=C(c1ccc(Cl)c(Cl)c1)CC(c1ccc3ccccc3c1)N2 (stereo not given)
2. Cc1ccc(N=Nc2cc(=O)[nH]c(=O)[nH]2)cc1C
3. CCOc1ccc(N2C(N)=NC(N)=NC2(C)C)cc1
4. C=C(Cl)C(=C)CCC(Cl)C(C)(C)Cl (stereo not given)
5. NC(=O)c1ccc(-c2c3ccccc3cc3c2ccc2ccccc23)cc1

Response line:
1: > 100 µM; 2: 29.1 µM; 3: > 100 µM; 4: > 100 µM; 5: 19 µM
